assay: Measurement of LogP values by HPLC on reversed phase columns (EEC directive 79/831 Annex V.A8); type: physicochemical
Marks after values point to notes of the source that are not given here.
test-readout: LogP

* CC(O)(Cn1cncn1)c1ccc(Oc2ccc(Cl)c(Cl)c2)nc1Cl (racemic) [I.32] | 3.09^[a]
* O=C(Cn1cncn1)c1ccc(Oc2ccc(S(F)(F)(F)(F)F)cc2)nc1Cl [VII.20] | 3.11^[a]
* O=C(Cn1cncn1)c1ccc(Oc2ccc(C(F)F)cc2)nc1C(F)(F)F [VII.42] | 2.41^[a]
* OC(Cn1cncn1)c1ccc(Oc2ccc(C(F)F)cc2)nc1Cl (stereo not shown) [I.38] | 2.17^[a]
